molecular target: CDK2 complexed with cyclin A (Homo sapiens, UniProt P24941); test: Cyclin dependent kinase activity assay, phosphorylation of synthetic peptide PKTPKKAKKLRRR; conditions: 0.1 mM ATP, read-out: CDK 2 Activity*
ENDPOINT_NAME: IC50

COMPOUND_STRUCTURE: NC(=S)N/N=C/c1cc(-c2ccccc2)ccc1O
TARGET_UNDER_TEST: CDK2 complexed with cyclin A (Homo sapiens, UniProt P24941)
RESULT: 500 to 2000 nM
--
COMPOUND_STRUCTURE: Nc1nccc(-c2cc(-c3ccncc3)ccc2O)n1
TARGET_UNDER_TEST: CDK2 complexed with cyclin A (Homo sapiens, UniProt P24941)
RESULT: < 500 nM
--
COMPOUND_STRUCTURE: Nc1nccc(-c2cc(-c3ccc4[nH]ccc4c3)ccc2O)n1
TARGET_UNDER_TEST: CDK2 complexed with cyclin A (Homo sapiens, UniProt P24941)
RESULT: 2000 to 5000 nM
--
COMPOUND_STRUCTURE: Cc1cc(-c2cc(-c3ccc(O)cc3)ccc2O)nc(N)n1
TARGET_UNDER_TEST: CDK2 complexed with cyclin A (Homo sapiens, UniProt P24941)
RESULT: < 500 nM
--
COMPOUND_STRUCTURE: NC(=S)N/N=C/c1cc(-c2ccncc2)ccc1O
TARGET_UNDER_TEST: CDK2 complexed with cyclin A (Homo sapiens, UniProt P24941)
RESULT: 2000 to 5000 nM
--
COMPOUND_STRUCTURE: Nc1nccc(-c2cc(-c3ccc(O)c(F)c3)ccc2O)n1
TARGET_UNDER_TEST: CDK2 complexed with cyclin A (Homo sapiens, UniProt P24941)
RESULT: < 500 nM
--
COMPOUND_STRUCTURE: NC(=S)N/N=C/c1cc(-c2cccc(O)c2)ccc1O
TARGET_UNDER_TEST: CDK2 complexed with cyclin A (Homo sapiens, UniProt P24941)
RESULT: 500 to 2000 nM

The compound listed as `Nc1cccc(-c2cc(-c3cc(-c4ccc(O)cc4)ccc3O)nc(N)n2)c1` shows IC50 equal to < 500 nM
